Where do these numbers come from? They come from patent US20250382363A1.

# target.system: pre-existing anti-drug antibodies (ADA) present in human sera
# assay: pre-existing ADA ELISA, scFv coated, human sera unspiked vs spiked
measurement.label: Mean No of serum samples >30% inhibition (30% CCP) with SCP (serum samples)
# respond with the number and nothing more

Guide cases for Mean No of serum samples >30% inhibition (30% CCP) with SCP (serum samples), answers given:
PRO2992 (scFv 54-21-H03-sc01_(T146A)) (scFv, PRO1922 variant; VH substitution, AHo numbering; also called PRO1922 T146A) scFv: DIQMTQSPSSLSASVGDRVTITCQASESIYSSLAWYQQKPGKAPKLLIYLASTLASGVPSRFSGSGSGTDFTLTISSLQPEDFATYYCQSTDYTTSTHRNSFGTGTKVTVLGGGGGSGGGGSGGGGSGGGGSEVQLVESGGGLVQPGGSLRLSCAASGFSFSTTYYMCWVRQAPGKGLEWIGCTNTASSVRTYYATWAKGRFTISRDNSKNTVYLQMNSLRAEDTAVYYCARDMGFADYALNLWGQGTLVAVSS ... 3
PRO2985 (scFv 37-20-B03-sc09.1_(T101A)) (scFv, PRO2230 variant; VH substitution, AHo numbering; also called PRO2230 T101A) scFv: DIQMTQSPASLSASVGDRVTITCQASQSIGTYLAWYQQKPGKPPKLLIYRAFILASGVPSRFSGSGSGTDFTLTISSLQPEDFATYYCQSNFYSDSTTIGPNAFGTGTKVTVLGGGGGSGGGGSGGGGSGGGGSEVQLVESGGGLVQPGGSLRLSCAASGFSFNSDYWIYWVRQAPGKGLEWIASIYGGSSGNTQYASWAQGRFTISRDNSKNTVYLQMNSLRAEDAAVYFCARGYVDYGGATDLWGQGTLVTVSS ... 2
PRO2984 (scFv 37-20-B03-sc09.1_(L12S, V103T, L144T)) (scFv, VH substitutions, AHo numbering; also called PRO2230-L12S-V103T-L144T) scFv: DIQMTQSPASLSASVGDRVTITCQASQSIGTYLAWYQQKPGKPPKLLIYRAFILASGVPSRFSGSGSGTDFTLTISSLQPEDFATYYCQSNFYSDSTTIGPNAFGTGTKVTVLGGGGGSGGGGSGGGGSGGGGSEVQLVESGGGSVQPGGSLRLSCAASGFSFNSDYWIYWVRQAPGKGLEWIASIYGGSSGNTQYASWAQGRFTISRDNSKNTVYLQMNSLRAEDTATYFCARGYVDYGGATDLWGQGTTVTVSS ... 5

Q: Specify measured Mean No of serum samples >30% inhibition (30% CCP) with SCP (serum samples) for PRO2988 (scFv 37-20-B03-sc09.1_(P48A)) (scFv, PRO2230 variant; VH substitution, AHo numbering; also called PRO2230 P48A) scFv: DIQMTQSPASLSASVGDRVTITCQASQSIGTYLAWYQQKPGKPPKLLIYRAFILASGVPSRFSGSGSGTDFTLTISSLQPEDFATYYCQSNFYSDSTTIGPNAFGTGTKVTVLGGGGGSGGGGSGGGGSGGGGSEVQLVESGGGLVQPGGSLRLSCAASGFSFNSDYWIYWVRQAAGKGLEWIASIYGGSSGNTQYASWAQGRFTISRDNSKNTVYLQMNSLRAEDTAVYFCARGYVDYGGATDLWGQGTLVTVSS .
Ans: 3

Q: Specify measured Mean No of serum samples >30% inhibition (30% CCP) with SCP (serum samples) for PRO3309 (scFv 37-20-B03-sc09.1_(L12R, T101S, L144A, T146Q)) (scFv, PRO2230 variant; VH substitutions, AHo numbering; also called PRO2230 L12R-T101S-L144A-T146Q) scFv: DIQMTQSPASLSASVGDRVTITCQASQSIGTYLAWYQQKPGKPPKLLIYRAFILASGVPSRFSGSGSGTDFTLTISSLQPEDFATYYCQSNFYSDSTTIGPNAFGTGTKVTVLGGGGGSGGGGSGGGGSGGGGSEVQLVESGGGRVQPGGSLRLSCAASGFSFNSDYWIYWVRQAPGKGLEWIASIYGGSSGNTQYASWAQGRFTISRDNSKNTVYLQMNSLRAEDSAVYFCARGYVDYGGATDLWGQGTAVQVSS .
Ans: 1

Q: Specify measured Mean No of serum samples >30% inhibition (30% CCP) with SCP (serum samples) for PRO3324 (scFv 54-21-H03-sc01_(T101R, T146Q)) (scFv, PRO1922 variant; VH substitutions, AHo numbering; also called PRO1922 T101R-T146Q) scFv: DIQMTQSPSSLSASVGDRVTITCQASESIYSSLAWYQQKPGKAPKLLIYLASTLASGVPSRFSGSGSGTDFTLTISSLQPEDFATYYCQSTDYTTSTHRNSFGTGTKVTVLGGGGGSGGGGSGGGGSGGGGSEVQLVESGGGLVQPGGSLRLSCAASGFSFSTTYYMCWVRQAPGKGLEWIGCTNTASSVRTYYATWAKGRFTISRDNSKNTVYLQMNSLRAEDRAVYYCARDMGFADYALNLWGQGTLVQVSS .
Ans: 1

Q: Specify measured Mean No of serum samples >30% inhibition (30% CCP) with SCP (serum samples) for PRO3325 (scFv 54-21-H03-sc01_(T101S, T146R)) (scFv, PRO1922 variant; VH substitutions, AHo numbering; also called PRO1922 T101S-T146R) scFv: DIQMTQSPSSLSASVGDRVTITCQASESIYSSLAWYQQKPGKAPKLLIYLASTLASGVPSRFSGSGSGTDFTLTISSLQPEDFATYYCQSTDYTTSTHRNSFGTGTKVTVLGGGGGSGGGGSGGGGSGGGGSEVQLVESGGGLVQPGGSLRLSCAASGFSFSTTYYMCWVRQAPGKGLEWIGCTNTASSVRTYYATWAKGRFTISRDNSKNTVYLQMNSLRAEDSAVYYCARDMGFADYALNLWGQGTLVRVSS .
Ans: 1

Q: Specify measured Mean No of serum samples >30% inhibition (30% CCP) with SCP (serum samples) for PRO2932 (scFv 54-21-H03-sc01_(L144A, S148N)) (scFv, PRO1922 variant; VH substitutions, AHo numbering; also called PRO1922 L144A-S148N) scFv: DIQMTQSPSSLSASVGDRVTITCQASESIYSSLAWYQQKPGKAPKLLIYLASTLASGVPSRFSGSGSGTDFTLTISSLQPEDFATYYCQSTDYTTSTHRNSFGTGTKVTVLGGGGGSGGGGSGGGGSGGGGSEVQLVESGGGLVQPGGSLRLSCAASGFSFSTTYYMCWVRQAPGKGLEWIGCTNTASSVRTYYATWAKGRFTISRDNSKNTVYLQMNSLRAEDTAVYYCARDMGFADYALNLWGQGTAVTVNS .
Ans: 1

Q: Specify measured Mean No of serum samples >30% inhibition (30% CCP) with SCP (serum samples) for PRO3318 (scFv 54-21-H03-sc01_(L12A, T101R, L144A, T146Q)) (scFv, PRO1922 variant; VH substitutions, AHo numbering; also called PRO1922 L12A-T101R-L144A-T146Q) scFv: DIQMTQSPSSLSASVGDRVTITCQASESIYSSLAWYQQKPGKAPKLLIYLASTLASGVPSRFSGSGSGTDFTLTISSLQPEDFATYYCQSTDYTTSTHRNSFGTGTKVTVLGGGGGSGGGGSGGGGSGGGGSEVQLVESGGGAVQPGGSLRLSCAASGFSFSTTYYMCWVRQAPGKGLEWIGCTNTASSVRTYYATWAKGRFTISRDNSKNTVYLQMNSLRAEDRAVYYCARDMGFADYALNLWGQGTAVQVSS .
Ans: 0
